Experimental Target: T1, Chryseobacterium sp-62563 deamidase polypeptide (second polypeptide, deamidase domain), wildtype (Chryseobacterium sp-62563)
T1 sequence: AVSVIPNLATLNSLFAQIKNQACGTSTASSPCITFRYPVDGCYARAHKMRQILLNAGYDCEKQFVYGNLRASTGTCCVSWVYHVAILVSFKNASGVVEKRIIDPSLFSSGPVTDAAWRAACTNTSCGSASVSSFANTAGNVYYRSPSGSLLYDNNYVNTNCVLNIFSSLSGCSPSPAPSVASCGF
Assay: cell-based or functional assay
Measured Parameter: NanoDSF thermal unfolding temperature (° C.)

>>> experimental_value("Chryseobacterium sp-62563 propeptide P69Q (protein) NQDPNLVAKESNETAMKDFGKTVPVGIEKEDGKFKISFMVTAQPYEIKDSKENAAYISMIKTAVENETQIHVFLKANTNEIAKVDKATDDDIRYFKSVFTKEVKEENRK")
74.1
>>> experimental_value("Chryseobacterium sp-62563 propeptide P69M (protein) NQDPNLVAKESNETAMKDFGKTVPVGIEKEDGKFKISFMVTAQPYEIKDSKENAAYISMIKTAVENETMIHVFLKANTNEIAKVDKATDDDIRYFKSVFTKEVKEENRK")
79.1
>>> experimental_value("Chryseobacterium sp-62563 propeptide P69D (protein) NQDPNLVAKESNETAMKDFGKTVPVGIEKEDGKFKISFMVTAQPYEIKDSKENAAYISMIKTAVENETDIHVFLKANTNEIAKVDKATDDDIRYFKSVFTKEVKEENRK")
70.6
>>> experimental_value("Chryseobacterium sp-62563 propeptide Y45M (protein) NQDPNLVAKESNETAMKDFGKTVPVGIEKEDGKFKISFMVTAQPMEIKDSKENAAYISMIKTAVENETPIHVFLKANTNEIAKVDKATDDDIRYFKSVFTKEVKEENRK")
79
>>> experimental_value("Chryseobacterium sp-62563 propeptide F38C (protein) NQDPNLVAKESNETAMKDFGKTVPVGIEKEDGKFKISCMVTAQPYEIKDSKENAAYISMIKTAVENETPIHVFLKANTNEIAKVDKATDDDIRYFKSVFTKEVKEENRK")
76.2
>>> experimental_value("Chryseobacterium sp-62563 propeptide F99G (protein) NQDPNLVAKESNETAMKDFGKTVPVGIEKEDGKFKISFMVTAQPYEIKDSKENAAYISMIKTAVENETPIHVFLKANTNEIAKVDKATDDDIRYFKSVGTKEVKEENRK")
74.1
